Test system: MCF-7 cells
assayMethodText: CCK-8 cell viability assay, MCF-7
Assay type: cell-based
statedConditions: Homo sapiens, MCF7; Table 2; 72 h, mean (n = 3)
Kindly supply the reported IC50 values for the records listed here.
Report the figure in µM without appending any unit label.

COc1ncc(-c2cnc3ncnc(N4CCC(C)CC4)c3c2)cc1NS(=O)(=O)c1ccc(F)cc1F [17f] yielded IC50 of 0.86

What the record says about COc1ncc(-c2cnc3ncnc(NC(C)C)c3c2)cc1NS(=O)(=O)c1ccc(F)cc1F [17a] : IC50 is 0.85

Recorded IC50 (compound COc1ncc(-c2cnc3ncnc(NCCO)c3c2)cc1NS(=O)(=O)c1ccc(F)cc1F [17h] ): 0.93

So for COc1ncc(-c2cnc3ncnc(N4CCOCC4)c3c2)cc1NS(=O)(=O)c1ccc(F)cc1F [17e] , the logged IC50 turned out to be 0.92
